Test: qHTS profiling of the MIPE4 collection as inhibitors of Plasmodium falciparum (3D7) proliferation (AID 743344);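 also: scaled between DMSO vehicle wells and 0.29 µM artemisinin as full inhibition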
Details: P. falciparum 3D7 in erythrocytes, SYBR Green DNA fluorescence, 72 h; at 28.5 µM unless noted
Protocol: Plasmodium falciparum is a virulent malarial parasite that kills 1-2 million people worldwide each year. […] Because mature erythrocytes lack DNA, only Plasmodium-derived DNA is detected. The SYBR Green viability assay was adapted from a method described previously (Plouffe et al., 2008). […] The following morning, fluorescence intensity at 485(14) nm excitation and 535(25) nm emission wavelengths was measured on an EnVision (Perkin Elmer) plate reader. […]
parasite growth, % of DMSO control values for the compounds below.

Example compounds with recorded parasite growth, % of DMSO control:
{"columns": ["Compound", "Observed Value"],
 "data": [
  ["COc1c(C)cnc(Cn2cnc3c(Cl)nc(N)nc32)c1C", "28.9%"],
  ["O=C(c1ccc(F)c(F)c1Nc1ccc(I)cc1F)N1CC(O)([C@H]2CCCCN2)C1", "11%"],
  ["CN1CCC[C@H]1CCO[C@](C)(c1ccccc1)c1ccc(Cl)cc1", "12.4%"],
  ["CC(C)C[C@@H](C(=O)N[C@H](C(=O)OC1CCCC1)c1ccccc1)[C@H](O)C(=O)NO", "15.1%"],
  ["C[C@@]1(c2cc(-c3cncnc3)c(F)cc2F)CCSC(N)=N1", "28.5%"]
]}

Note to self: parasite growth, % of DMSO control recorded for O[C@@H](COc1cccc2ncccc12)CN1CCN(C2c3ccccc3[C@@H]3[C@H](c4ccccc42)C3(F)F)CC1 (stereo partly drawn) was 47.1%

Note to self: parasite growth, % of DMSO control recorded for CN1CC(=O)NC1=NC(=O)Nc1cccc(Cl)c1 was 78.1%

Note to self: parasite growth, % of DMSO control recorded for O=C(Nc1ccccc1)Nc1ccc(-c2ccc(C(=O)[C@H]3CCC[C@H]3C(=O)O)cc2)cc1 was 29%

Note to self: parasite growth, % of DMSO control recorded for Cc1nc(NC(=O)N2CCC[C@@H]2C(N)=O)sc1-c1csc(C(C)(C)C)n1 was 16.4%

* * *

molecular target: Glutathione peroxidase 1 (Homo sapiens); assay: Primary qHTS Assay for Inhibitors of Recombinant Selenoprotein Glutathione Peroxidase 1 (GPX1) (AID 1845191); conditions: recombinant GPX1, GR-coupled NADPH fluorescence, 15 min; series mostly up to 48.8 µM; also: nearly all actives have a fitted effect of over 65% in size
Results filed as inconclusive are left out. Active and inactive are the calls of the source. Calls follow the shape of the dose curve; as a rule, active = well fitted inhibition curve with a large enough effect; inconclusive = small, poorly fitted or top-dose-only effect; inactive = flat fitted curve, though single readings scatter.
Measured Quantity: outcome

Example compounds with recorded outcome:
{"columns": ["Structure", "outcome"],
 "data": [
  ["COc1ccc2nc3cc(Cl)ccc3c(Nc3cc(CN4CCCC4)c(O)c(CN4CCCC4)c3)c2n1", "inactive"],
  ["O=C(O)Cc1cccc(OCCCN(Cc2cccc(C(F)(F)F)c2Cl)CC(c2ccccc2)c2ccccc2)c1", "inactive"],
  ["Nc1ccc(-c2ccc3ncc4ccc(=O)n(-c5cccc(C(F)(F)F)c5)c4c3c2)cn1", "inactive"],
  ["Cc1ccccc1-n1c(Cn2nc(-c3cccc(O)c3)c3c(N)ncnc32)nc2cccc(C)c2c1=O", "inactive"]
]}

Note to self: outcome recorded for N#Cc1ccc(Oc2ccc3c(c2)COB3O)cc1 was inactive

* * *

experiment: Quantitative High-Throughput drug screen in 47 multiple myeloma cell lines against the NCATS MIPE library collection: OPM2_DSMZ cell viability assay (AID 1919872); settings: OPM2 myeloma viability, CellTiter-Glo ATP luminescence, 48 h; series mostly up to 45.8 µM; also: nearly all actives have a fitted effect of over 30% in size
Records with an inconclusive call do not appear. Calls of active or inactive are those of the source. The call rests on the fitted dose curve; in most records, active means well fitted cell-killing curve with a large enough effect; inconclusive means small, poorly fitted or top-dose-only effect, or effect the other way; inactive means no such curve, though single readings can be large or run the other way.

{"columns": ["Compound", "outcome"],
 "data": [
  ["CC[C@H]1OC(=O)[C@H](C)[C@@H](O[C@H]2C[C@@](C)(OC)[C@@H](O)[C@H](C)O2)[C@H](C)[C@@H](O[C@@H]2O[C@H](C)C[C@H](N(C)C)[C@H]2O)[C@](C)(O)C[C@H](C)C(=NOCOCCOC)[C@H](C)[C@@H](O)[C@]1(C)O", "inactive"],
  ["CC1=C(C(=O)Nc2cc3cn[nH]c3cc2F)C(c2ccc(C(F)(F)F)cc2)CC(=O)N1 (stereo not drawn)", "inactive"],
  ["O=C1NC(=O)C(=Cc2ccc(-c3ccc(F)cc3O)o2)S1", "inactive"]
]}
